In this section we review reported IC50 ratio values for a set of molecules.
# assay.system: Kappa-type opioid receptor (Cavia porcellus)
# test.protocol: Ratio of IC50 of ethylketazocine (EK) in the presence (100 nM) to that of ethylketazocine (EK) alone, against kappa opioid receptor in Guinea pig ileum preparation
# Assay type: tissue-based
reported.endpoint: IC50 ratio

> print(dat)
                                   molecule                              assay.system  reading
1  CCCC(=N)NCc1ccc2[nH]c3c(c2c1)C[C@@]1(O)[C@H]2Cc4ccc(O)c5c4[C@@]1(CCN2CC1CC1)C3O5 (some centres undefined)  Kappa-type opioid receptor (Cavia porcellus)      185
2  CCCCC(=N)NCc1ccc2[nH]c3c(c2c1)C[C@@]1(O)[C@H]2Cc4ccc(O)c5c4[C@@]1(CCN2CC1CC1)C3O5 (some centres undefined)  Kappa-type opioid receptor (Cavia porcellus)      439
3  Oc1ccc2c3c1O[C@H]1c4[nH]c5ccccc5c4C[C@@]4(O)[C@@H](C2)N(CC2CC2)CC[C@]314  Kappa-type opioid receptor (Cavia porcellus)      1.3
4  CCC(=N)NCc1ccc2[nH]c3c(c2c1)C[C@@]1(O)[C@H]2Cc4ccc(O)c5c4[C@@]1(CCN2CC1CC1)C3O5 (some centres undefined)  Kappa-type opioid receptor (Cavia porcellus)      159
